- Target: T1, mouse GIP receptor (mouse, UniProt Q0P543 19-460)
- T1 sequence: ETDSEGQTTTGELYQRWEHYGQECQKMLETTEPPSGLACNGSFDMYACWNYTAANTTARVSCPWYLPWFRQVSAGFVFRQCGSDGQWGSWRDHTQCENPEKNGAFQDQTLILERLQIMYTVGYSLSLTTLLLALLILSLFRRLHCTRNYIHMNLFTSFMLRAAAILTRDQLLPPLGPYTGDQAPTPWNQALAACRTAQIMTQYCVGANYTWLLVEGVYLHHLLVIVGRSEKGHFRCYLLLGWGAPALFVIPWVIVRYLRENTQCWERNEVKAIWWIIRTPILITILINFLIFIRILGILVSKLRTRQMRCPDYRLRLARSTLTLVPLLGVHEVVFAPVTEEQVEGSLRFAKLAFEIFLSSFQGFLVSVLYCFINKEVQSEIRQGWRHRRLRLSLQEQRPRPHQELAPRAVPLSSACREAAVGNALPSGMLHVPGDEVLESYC
- Run description: cell-based or functional assay
*1 amine or outer side, *2 acyl side, *3 side chain or, on linkers, in order; H or OH if unused. Where no end group is shown, it is not given here. Side-chain parts run from the residue outwards. The star is where a group is joined. C18 diacid = O=C(O)CCCCCCCCCCCCCCCCC(=O)*; γGlu = O=C(O)[C@H](CCC(=O)[*:2])N[*:1]; AEEA = NCCOCCOCC(=O)O
Examples of binders with documented maximal % inhibition of GIP-induced cAMP in BHK cells expressing mGIPR follow.
Response body: numeric value in %, unit text excluded.

Consider the worked cases shown below.
1) Ac-TFISDYK(C18 diacid)IALDKIRQQEFVNWLLAQKG [[Nα-Ac, L14, R18, E21] hGIP(5-31)-K11 (-C18-OH)] : 100
2) Ac-TFISDYK([AEEA-AEEA-C18 diacid])IALDKIRQQEFVNWLLAQKG [[Nα-Ac, L14, R18, E21] hGIP(5-31)-K11(OEG2-C18-OH)] : 100

Lookup: Given the binder Ac-TFISDYK([AEEA-AEEA-γGlu-C18 diacid])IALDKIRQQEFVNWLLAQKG [[Nα-Ac, L14, R18, E21] hGIP(5-31)-K11(OEG2-γE-C18-OH)] , what is its reported maximal % inhibition of GIP-induced cAMP in BHK cells expressing mGIPR?
Found: 100

Lookup: Same question for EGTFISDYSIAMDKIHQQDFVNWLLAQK-NH2 [hGIP(3-30) amide] please.
Found: 73
